Tested on: pRB in OVCAR3 cells
Assay: pRB ICW Assay in OVCAR3 Cells
Type: cell-based
Conditions: Homo sapiens, OVCAR-3, incubated with compound for 2 hours, read-out: OVCAR3 p-RB ICW IC50
pIC50: −log10 of the molar value.
For each entry below, report its pIC50 value.

Ask: Please provide the recorded pIC50 for CS(=O)(=O)N1CCC(Nc2ncc(C(F)(F)F)c(-c3cc4c(s3)C3(CF)CCCN3C4=O)n2)CC1 (centres unmarked) , tested on pRB in OVCAR3 cells.
Result: 6.30 to 7.00

Ask: Could you do the same for CC(C)C12CCCN1C(=O)c1cc(-c3nc(NC4CCN(S(C)(=O)=O)CC4)ncc3C(F)(F)F)sc12 (centres unmarked) , please?
Result: 6.30 to 7.00

Ask: Could you do the same for CCNC1CN2C(=O)c3cc(-c4nc(NC5CCN(S(C)(=O)=O)CC5)ncc4C(F)(F)F)sc3C2(CC)C1 (centres unmarked) , please?
Result: ≥ 7.00

Ask: Could you do the same for CCC12CC(N(C)C)CN1C(=O)c1cc(-c3nc(NC4CCN(S(=O)(=O)c5cnn(C)c5)CC4)ncc3C(F)(F)F)sc12 (centres unmarked) , please?
Result: ≥ 7.00

Ask: Could you do the same for CCC12CCCN1C(=O)c1cc(-c3nc(NC4CCN(S(C)(=O)=O)CC4)ncc3C(F)(F)F)sc12 (centres unmarked) , please?
Result: ≥ 7.00

Ask: Could you do the same for CC(C)C12CC(O)CN1C(=O)c1cc(-c3nc(NC4CCN(S(C)(=O)=O)CC4)ncc3C(F)(F)F)sc12 (centres unmarked) , please?
Result: ≥ 7.00

Ask: Could you do the same for CS(=O)(=O)N1CCC(Nc2ncc(C(F)(F)F)c(-c3cc4c(s3)C3CCCN3C4=O)n2)CC1 (centres unmarked) , please?
Result: 6.30 to 7.00

Ask: Could you do the same for CCC12CCCN1C(=O)c1cc(-c3nc(NC4CCN(S(C)(=O)=O)CC4)ncc3C)sc12 (centres unmarked) , please?
Result: ≥ 7.00

Ask: Could you do the same for CC12CCCN1C(=O)c1cc(-c3nc(NC4CCN(S(C)(=O)=O)CC4)ncc3C(F)(F)F)sc12 (centres unmarked) , please?
Result: ≥ 7.00

Ask: Could you do the same for CCC12CCCN1C(=O)c1cc(-c3nc(NC4CCN(S(C)(=O)=O)CC4)ncc3Cl)sc12 (centres unmarked) , please?
Result: ≥ 7.00

Ask: Could you do the same for CS(=O)(=O)N1CCC(Nc2ncc(C(F)(F)F)c(-c3cc4c(s3)C3(CO)CCCN3C4=O)n2)CC1 (centres unmarked) , please?
Result: 6.30 to 7.00

Ask: Could you do the same for CCC12CC(N(C)C)CN1C(=O)c1cc(-c3nc(NC4CCN(S(C)(=O)=O)CC4)ncc3C(F)(F)F)sc12 (centres unmarked) , please?
Result: ≥ 7.00

Ask: Could you do the same for CCC12CC(NC)CN1C(=O)c1cc(-c3nc(N[C@H]4CCN(S(C)(=O)=O)C[C@H]4C)ncc3C(F)(F)F)sc12 (some centres unmarked) , please?
Result: 6.30 to 7.00

Ask: Could you do the same for CCC12CC(N)CN1C(=O)c1cc(-c3nc(N[C@H]4CCN(S(=O)(=O)c5cnn(C)c5)C[C@H]4C)ncc3C(F)(F)F)sc12 (some centres unmarked) , please?
Result: ≥ 7.00

Ask: Could you do the same for CCC12CC(NC)CN1C(=O)c1cc(-c3nc(N[C@H]4CCN(S(C)(=O)=O)C[C@H]4F)ncc3C(F)(F)F)sc12 (some centres unmarked) , please?
Result: ≥ 7.00

Ask: Could you do the same for COC1CN2C(=O)c3cc(-c4nc(NC5CCN(S(C)(=O)=O)CC5)ncc4C(F)(F)F)sc3C2(C(C)C)C1 (centres unmarked) , please?
Result: 6.30 to 7.00

Ask: Could you do the same for CC(C)C12CCCCN1C(=O)c1cc(-c3nc(NC4CCN(S(C)(=O)=O)CC4)ncc3C(F)(F)F)sc12 (centres unmarked) , please?
Result: 6.30 to 7.00

Ask: Could you do the same for CS(=O)(=O)N1CCC(Nc2ncc(C(F)(F)F)c(-c3cc4c(s3)C3(C5CCC5)CCCN3C4=O)n2)CC1 (centres unmarked) , please?
Result: 6.30 to 7.00

Ask: Could you do the same for [2H]C([2H])([2H])NC1CN2C(=O)c3cc(-c4nc(NC5CCN(S(C)(=O)=O)CC5)ncc4C(F)(F)F)sc3C2(CC)C1 (centres unmarked) , please?
Result: ≥ 7.00

Ask: Could you do the same for CS(=O)(=O)N1CCC(Nc2ncc(C(F)(F)F)c(-c3cc4c(s3)C3(C5CC(F)C5)CCCN3C4=O)n2)CC1 (centres unmarked) , please?
Result: 6.30 to 7.00

Ask: Could you do the same for CCC12CC(C)(O)CN1C(=O)c1cc(-c3nc(NC4CCN(S(C)(=O)=O)CC4)ncc3C(F)(F)F)sc12 (centres unmarked) , please?
Result: ≥ 7.00

Ask: Could you do the same for CC(C)C12CCOCCN1C(=O)c1cc(-c3nc(NC4CCN(S(C)(=O)=O)CC4)ncc3C(F)(F)F)sc12 (centres unmarked) , please?
Result: 6.30 to 7.00

Ask: Could you do the same for CS(=O)(=O)N1CCC(Nc2ncc(C(F)(F)F)c(-c3cc4c(s3)C3(C5CC(F)(F)C5)CCCN3C4=O)n2)CC1 (centres unmarked) , please?
Result: 6.30 to 7.00

Ask: Could you do the same for CCC12CC(N)CN1C(=O)c1cc(-c3nc(NC4CCN(S(C)(=O)=O)CC4)ncc3C(F)(F)F)sc12 (centres unmarked) , please?
Result: ≥ 7.00

Ask: Could you do the same for CCC12CC(O)CN1C(=O)c1cc(-c3nc(NC4CCN(S(=O)(=O)c5cnn(C)c5)CC4)ncc3C(F)(F)F)sc12 (centres unmarked) , please?
Result: ≥ 7.00

Ask: Could you do the same for CCC12CC(O)CN1C(=O)c1cc(-c3nc(NC4CCN(S(C)(=O)=O)CC4)ncc3C(F)(F)F)sc12 (centres unmarked) , please?
Result: ≥ 7.00

Data provenance: patent US11939340B2
